- system.name: Sterol O-acyltransferase 1 (Homo sapiens, UniProt P35610)
- Sequence (P35610 whole entry): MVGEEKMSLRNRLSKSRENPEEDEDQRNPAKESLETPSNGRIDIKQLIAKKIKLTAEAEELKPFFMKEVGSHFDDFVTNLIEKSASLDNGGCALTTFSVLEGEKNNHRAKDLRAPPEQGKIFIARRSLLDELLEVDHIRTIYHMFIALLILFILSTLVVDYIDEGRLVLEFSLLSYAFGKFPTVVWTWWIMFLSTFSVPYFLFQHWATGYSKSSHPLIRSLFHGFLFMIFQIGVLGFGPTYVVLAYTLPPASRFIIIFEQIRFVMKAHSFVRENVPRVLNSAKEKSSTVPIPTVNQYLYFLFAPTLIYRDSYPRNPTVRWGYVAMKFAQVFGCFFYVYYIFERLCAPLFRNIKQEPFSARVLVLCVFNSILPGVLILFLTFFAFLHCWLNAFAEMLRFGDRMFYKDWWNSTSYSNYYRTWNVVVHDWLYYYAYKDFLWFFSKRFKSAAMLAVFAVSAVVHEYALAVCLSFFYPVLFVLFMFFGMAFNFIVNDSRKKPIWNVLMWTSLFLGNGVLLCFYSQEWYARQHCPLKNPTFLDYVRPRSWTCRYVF
- protocol.summary: Inhibition of human full-length flag-tagged ACAT1 expressed in baculovirus infected insect cells using [14C]palmitoyl CoA as substrate after 10 mins by scintillation counting
measured.metric: IC50

Qu. Please report IC50 for the following compound: CC1(C)Oc2nc(C(F)(F)F)nc(N)c2N=C1c1ccc2c(c1)CC[C@]21CC[C@@H](CC(=O)O)CC1
Ans. > 10 µM

----------
- protocol.summary: AUC in CD1 mouse at 2 mg/kg, po
- Format: ADME, organism-based
- Parameters: dose 2 mg/kg, route oral
- condition.details: plasma
measured.metric: AUC (ng·h/mL)
The reply should be a number in ng·h/mL, with the unit left off.

Qu. Output measured AUC for this item: CC1(C)Oc2ncnc(N)c2N=C1c1ccc([C@H]2CC[C@H](CC(=O)O)CC2)cc1
Ans. 6690

----------
- protocol.summary: Oral Bioavailability in CD1 mouse at 0.3 mg/kg
- Type: ADME, organism-based
- condition.details: in vivo
measured.metric: bioavailability (%)
Give the value, in units of %, as a plain number.

Qu. Give the reported value of bioavailability for this record: CC1(C)Oc2nc(C(F)(F)F)nc(N)c2N=C1c1ccc2c(c1)CC[C@]21CC[C@@H](CC(=O)O)CC1
Ans. 77

----------
- protocol.summary: Volume of distribution at steady state in beagle dog at 0.2 mg/kg, iv
- Type: ADME, organism-based, Canis lupus familiaris
- Set-up: dose 0.2 mg/kg, route intravenous
- condition.details: in vivo, read-out: Vdss
measured.metric: Vd

Qu. # return recorded Vd for input CC1(C)Oc2nc(C(F)(F)F)nc(N)c2N=C1c1ccc2c(c1)CC[C@]21CC[C@@H](CC(=O)O)CC1
Ans. 0.21 L/kg

----------
- protocol.summary: Volume of distribution at steady state in Sprague-Dawley rat at 0.7 mg/kg, iv
- Assay type: ADME, organism-based
- Design: dose 0.7 mg/kg, route intravenous
- condition.details: in vivo, read-out: Vdss
measured.metric: Vd (L/kg)
Report as a plain number; the unit L/kg is understood.

Qu. For the compound CC1(C)Oc2nc(C(F)(F)F)nc(N)c2N=C1c1ccc2c(c1)CC[C@]21CC[C@@H](CC(=O)O)CC1 , report Vd.
Ans. 1.1

----------
- protocol.summary: Oral bioavailability in cynomolgus monkey at 5 mg/kg
- Format: ADME, organism-based, Macaca fascicularis
- condition.details: in vivo
measured.metric: bioavailability (%)
Quick reminder: number only, in %, skip the unit.

Qu. Give bioavailability for CC1(C)Oc2nc(C(F)(F)F)nc(N)c2N=C1c1ccc2c(c1)CC[C@]21CC[C@@H](CC(=O)O)CC1
Ans. 99

----------
- protocol.summary: Oral bioavailability in beagle dog at 5 mg/kg
- Assay type: ADME, organism-based, Canis lupus familiaris
- condition.details: in vivo
measured.metric: bioavailability (%)
Provide only the numeric value, understood in %.

Qu. Item CC1(C)Oc2ncnc(N)c2N=C1c1ccc([C@H]2CC[C@H](CC(=O)O)CC2)cc1 : provide bioavailability
Ans. 64

----------
- protocol.summary: Oral Bioavailability in CD1 mouse at 2 mg/kg
- Assay type: ADME, organism-based
- condition.details: in vivo
measured.metric: bioavailability (%)
Please give a number only; it is taken to be in %.

Qu. Give bioavailability for the following compound: CC1(C)Oc2ncnc(N)c2N=C1c1ccc([C@H]2CC[C@H](CC(=O)O)CC2)cc1
Ans. 40

Cited source for all entries: ChEMBL document CHEMBL3232847
